Provide the recorded pIC50 for the entries that follow.
target: HLA-B*07:02; assay: IEDB peptide-MHC binding, purified MHC/competitive/radioactivity; bounds were set here for any values at or beyond the usual limits of such assays; conditions: source organism: Bordetella pertussis
Numbers only, as −log10 of the molar value.

ECSGKQDCP = 4.16
VPFCFGKDL = 4.92

Now for another entry.
So what does the record say about pIC50 for "AAAEVAGAL" ?
5.21

----------
Task for the reader: assign each of the following sequences its reported IC50.
target: HLA-B*57:01; test: IEDB peptide-MHC binding, purified MHC/competitive/radioactivity; bounds were set here for any values at or beyond the usual limits of such assays; settings: source organism: Bordetella pertussis

ESAEGRKIF = ≥ 70.4 µM
VTMRYLASY = 0.0142 µM

Lab note: next sequence to report on.
Find IC50 (HLA-B*57:01) for the entry "IVIPPKALF"
45.6 µM
